Taken from the supplement of paper PMC7125110.

B1: glmS ribozyme (parent)
chain: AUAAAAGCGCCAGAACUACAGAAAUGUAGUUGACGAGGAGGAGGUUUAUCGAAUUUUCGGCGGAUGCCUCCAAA

- Variants of: B1
- protocol_description: self-cleavage kobs at 640 uM GlcN6P; higher = faster cleavage; RNA array
- condition_set: with glucosamine-6-phosphate
Fewer inactive variants are shown than the library holds.
As shown below, each of these variants has a reported self-cleavage kobs at 640 uM GlcN6P value.

Examples with answers:
[[record]]
sequence_string = "AUAAAAGCGCCGGAACUACAGAAAUGUAGUUGACGAGAAGGAGGUUUAUCGAAUUUUCGGCGGAUUCCUCCAAA [A12G G38A G66U]"
measured_property = "self-cleavage kobs at 640 uM GlcN6P"
obs_value = "< 1e-05 s⁻¹"

[[record]]
sequence_string = "AUAAAAGCGCCAGAACUACAGAAAUGUAGUUGACUAGGAGGAGGUUUAUCGAAUUUUCGGCGGAUGCCACCAAA [G35U U69A]"
measured_property = "self-cleavage kobs at 640 uM GlcN6P"
obs_value = "< 1e-05 s⁻¹"


**Query** Query: self-cleavage kobs at 640 uM GlcN6P; subject: AUAAAAGCGCCAGAACUACAGAAAUGUAGUUGACGAGGAGUAGGUUUAUCGAAUUUUCGGCGGAUGCCUCAAAA [G41U C71A]
**Result** 0.000128 s⁻¹

**Query** Query: self-cleavage kobs at 640 uM GlcN6P; subject: AUAAAAGCGCCAGAACUACAGAAAUGUAGUUAACGAGGAGGAGGUUUAUCGAAUUUUCGGCGGAUACCUCCAAA [G32A G66A]
**Result** 0.000269 s⁻¹

**Query** Query: self-cleavage kobs at 640 uM GlcN6P; subject: AUAAAAGCGCCAGAACUACAGAAAUGUAGUCGACGAGGAUGAGGUUUAUCGAAUUUUCGGCGGAUGCCUCCAAA [U31C G40U]
**Result** 0.000122 s⁻¹
